- Target Desc: T1, CD134 expressed on the cell surface of HT1080_OX40 cells (human, UniProt P43489 29-277); note: test concentration or dose not given here
- T1 sequence (looked up): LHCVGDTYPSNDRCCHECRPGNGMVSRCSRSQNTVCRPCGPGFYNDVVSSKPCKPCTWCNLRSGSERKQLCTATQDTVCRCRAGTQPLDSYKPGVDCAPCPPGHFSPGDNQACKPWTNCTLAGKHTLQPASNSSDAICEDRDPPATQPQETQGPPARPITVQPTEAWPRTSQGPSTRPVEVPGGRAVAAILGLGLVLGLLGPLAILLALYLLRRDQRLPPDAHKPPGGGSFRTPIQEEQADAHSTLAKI
- Assay Procedure: cell-based or functional assay
Kindly supply the reported Functional assay IL-8 values for the records listed here.
Just the number in abs. corr., nothing appended.

For the binder shown here, P018.S.04.A.E06 (antibody, V domains shown, V regions on human Ig constant parts; also called AB134_11) VH: QSVEESGGRLVTPGTPLTLTCTVSGFSLSGYDMSWVRQAPGKGLEWIGYIYAGSTYYANWAKGRFTISKTSTTVDLKMTSPTTEDTATYFCTRVGAGYSGVWAYFNLWGPGTLVTVSS VL: AQVLTQTPSSVSAAVGGTVTINCQSSQSVDSDNYLAWYQQKPGQPPKLLIYDASKLASGVPSRFTGSGSGTQFTLTISGVQSDDAATYYCQGTYGNIGWYFAFGGGTEVVVK , give the reported Functional assay IL-8.
0.135

And P018.S.12.A.D03 (antibody, V domains shown, V regions on human Ig constant parts; also called AB134_68) VH: QERLVESGGGLVKPGASLTLTCTASGFSFSSGYDMCWVRQAPGKGLEWVGCIDTGTGTIYYASWAPGRFTISETSSTMVTLQMTSLTAADTATYFCARSVGGYDYAIDLWGPGTLVTVSS VL: AYDMTQTPASVEVPVGGTVTIKCQASQNIGSRLVWYQQKPGQSPKFLIYYASNLASGVSSRFKGSGSGTQFTLTISDVQSDNAATYYCQQTYSYSDVDDTFGGGTEVVVK ?
0.707

Repeat with P018.S.11.A.F04 (antibody, V domains shown, V regions on human Ig constant parts; also called AB134_40) VH: QSVEESGGRLVTPGTPLTLTCTVSGFSLSRYTMGWVRQAPGKGLEYIGIIYGDDNTYYASWAKGRLTISKTSSTTVDLKITSPTTEDTATYFCASCAPIYYNTFSFNLWGQGTLVTVSA VL: AYDMTQTPASVEVAVGGTVTIKCQASQTIGGSLSWYQQKPGQPPKLLIYAAATLASGVPSRFKGSGSGTQFTLTISGVESDDAATYYCQQHYTGDNVNNPFGGGTEVVVK
0.568

Try this binder next: P018.S.12.A.E03 (antibody, V domains shown, V regions on human Ig constant parts; also called AB134_74) VH: QSVEESGGRLVTPGTPLTLTCTVAGIDLNICGMSWVRQAPGKGLEWIGIIYPSDYTYYATWAKGRFTISKTSTTVDLKITSPTTEDTATYFCARGLGHAWSHFDLWGQGTLVTVSS VL: AFELTQTPASVSEPVGGTVTIKCQASQSIGSDLAWYQQKPGQPPKLLIYSVSNLPSGVSSRFKGSRSGTEYTLTISDLESADAATYYCQSYYGTITTGYIAFGGGTEVVVK
0.461

Quick one: P018.S.04.A.B06 (antibody, V domains shown, V regions on human Ig constant parts; also called AB134_7) VH: QSVEESGGRLVTPGTFLTLTCTVSGFSLSSYAMNWVRQSPGKGLEWIGIIYSDDIAYYASWAKGRFTISKTSTTVTLKMTSLTVADTATYFCARGDGDRSIWSFDLWGPGTLVTVSS VL: AQVLTQTPSPVSAAVGGTVTISCQSSESVWNNNWLAWYQQKPGQPPNLLIYEASTLASGVSSRFKGSGSGTQFTLTVSEVQSDDAATYYCQGGYYDSSPIWTFGGGTEVVVK
1.82
